# subject of test: DCAMKL1A (Homo sapiens, UniProt O15075)
# Construct: purchased in-house DSF kinase panel (SGC-style construct names; the trailing letter is the construct ID)
# Sequence (O15075 372-649): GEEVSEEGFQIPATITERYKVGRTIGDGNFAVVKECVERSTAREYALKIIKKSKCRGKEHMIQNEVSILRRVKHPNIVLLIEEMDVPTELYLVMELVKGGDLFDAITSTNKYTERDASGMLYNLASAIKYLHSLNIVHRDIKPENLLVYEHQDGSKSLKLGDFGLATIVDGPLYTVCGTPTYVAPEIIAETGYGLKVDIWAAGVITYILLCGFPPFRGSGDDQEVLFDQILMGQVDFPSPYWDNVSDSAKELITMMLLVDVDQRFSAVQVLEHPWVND
# test summary: DSF Tm panel
# Assay type: binding
# details: 10 μM compound
quantity name: ΔTm at 10 µM (°C)

> print(dat)
                                    molecule  quantity.name  test.value
 1  Cc1cc(Cl)ccc1CNC(=O)Nc1ccc2cc1OCCOCCNc1ccn3ncc-2c3n1 [compound 23]   ΔTm at 10 µM         0.7
 2  O=C(NCc1ccccc1C(F)(F)F)Nc1ccc2cc1OCCOCCNc1ccn3ncc-2c3n1 [compound 27]   ΔTm at 10 µM         2.3
 3  COc1ccccc1CNC(=O)Nc1ccc2cc1OCCOCCNc1ccn3ncc-2c3n1 [compound 29]   ΔTm at 10 µM         0.9
 4  COc1cccc(CNC(=O)Nc2ccc3cc2OCCOCCNc2ccn4ncc-3c4n2)c1 [compound 30]   ΔTm at 10 µM         1.2
 5  COc1ccc(CNC(=O)Nc2ccc3cc2OCCOCCNc2ccn4ncc-3c4n2)cc1 [compound 31]   ΔTm at 10 µM         1.4
 6  Cc1ccc(F)cc1CNC(=O)Nc1ccc2cc1OCCOCCNc1ccn3ncc-2c3n1 [compound 26]   ΔTm at 10 µM         1.6
 7  O=C(NCc1ccc(Cl)cc1Cl)Nc1ccc2cc1OCCOCCNc1ccn3ncc-2c3n1 [compound 20]   ΔTm at 10 µM         0.6
 8  C[C@H](NC(=O)Nc1ccc2cc1OCCOCCNc1ccn3ncc-2c3n1)c1ccccc1 [compound 34]   ΔTm at 10 µM         1.9
 9  O=C(NCc1cccc(Cl)c1)Nc1ccc2cc1OCCOCCNc1ccn3ncc-2c3n1 [compound 18]   ΔTm at 10 µM        -0.1
10  O=C(NCc1ccccc1Cl)Nc1ccc2cc1OCCOCCNc1ccn3ncc-2c3n1 [compound 17]   ΔTm at 10 µM         0.7
11  Cc1cc(Br)ccc1CNC(=O)Nc1ccc2cc1OCCOCCNc1ccn3ncc-2c3n1 [compound 24]   ΔTm at 10 µM         1.6
12  COc1ccc(CNC(=O)Nc2ccc3cc2OCCOCCNc2ccn4ncc-3c4n2)cc1F [compound 32]   ΔTm at 10 µM         1.6
13  O=C(NCc1ccc(Cl)cc1)Nc1ccc2cc1OCCOCCNc1ccn3ncc-2c3n1 [compound 19]   ΔTm at 10 µM           0
14  O=C(NCc1ccccc1)Nc1ccc2cc1OCCOCCNc1ccn3ncc-2c3n1 [compound 16]   ΔTm at 10 µM         0.8
